- experimentalDetails: Stability indicating HPLC assay and related substances on storage (Example 3)
- Type: physicochemical
- conditionSummary: Initial
quantityMeasured: Known Related Substances HN67003 (%)
All answers are understood in %, so give the number only.

For the compound CN1CC[C@]23c4c5ccc(O)c4O[C@H]2[C@@H](O[C@@H]2O[C@H](C(=O)O)[C@@H](O)[C@H](O)[C@H]2O)C=C[C@H]3[C@H]1C5 [Morphine-6-glucuronide base, morphine-6-β-D-glucuronide] , give its measured Known Related Substances HN67003 value. 0.05

For the compound CN1CC[C@]23c4c5ccc(O)c4O[C@H]2[C@@H](O[C@@H]2O[C@H](C(=O)O)[C@@H](O)[C@H](O)[C@H]2O)C=C[C@H]3[C@H]1C5.Cl [Morphine-6-glucuronide hydrochloride] , give its measured Known Related Substances HN67003 value. 0.07

For the compound CN1CCC23c4c5ccc(O)c4OC2C(OC2OC(C(=O)O)C(O)C(O)C2O)C=CC3C1C5.O=P(O)(O)O (centres unmarked) [Morphine-6-glucuronide phosphate] , give its measured Known Related Substances HN67003 value. 0.04

For the compound CN1CCC23c4c5ccc(O)c4OC2C(OC2OC(C(=O)O)C(O)C(O)C2O)C=CC3C1C5.CN1CCC23c4c5ccc(O)c4OC2C(OC2OC(C(=O)O)C(O)C(O)C2O)C=CC3C1C5.O=C(O)C=CC(=O)O (centres unmarked) [Morphine-6-glucuronide fumarate] , give its measured Known Related Substances HN67003 value. 0.04

Now consider a different compound.
For the compound Br.CN1CC[C@]23c4c5ccc(O)c4O[C@H]2[C@@H](O[C@@H]2O[C@H](C(=O)O)[C@@H](O)[C@H](O)[C@H]2O)C=C[C@H]3[C@H]1C5 [Morphine-6-glucuronide hydrobromide] , give its measured Known Related Substances HN67003 value. 0.04

====

- experimentalDetails: Stability indicating HPLC assay and related substances on storage (Example 3)
- Format: physicochemical
- conditionSummary: 1 month, 60° C.
- Experimental: Assay (% w/w) and related substances determination Each test material was stored between 2-8*C prior to placing on stability. Each material was sub-divided into 900 mg aliquots, transferred to brown opaque HDPE plastic bottles and flushed with Argon prior to sealing. Sufficient samples were provided for each time point as well as spares for each storage condition. The samples were placed in appropriate incubators previously commissioned at storage conditions 25° C./60% RH, 40° C./75% RH and 60° C. […]
quantityMeasured: Known Related Substances HN75076 (%)
All answers are understood in %, so give the number only.

For the compound CN1CCC23c4c5ccc(O)c4OC2C(OC2OC(C(=O)O)C(O)C(O)C2O)C=CC3C1C5.O=P(O)(O)O (stereo not drawn) [Morphine-6-glucuronide phosphate] , give its measured Known Related Substances HN75076 value. 0.03

Next:
For the compound CN1CCC23c4c5ccc(O)c4OC2C(OC2OC(C(=O)O)C(O)C(O)C2O)C=CC3C1C5.CN1CCC23c4c5ccc(O)c4OC2C(OC2OC(C(=O)O)C(O)C(O)C2O)C=CC3C1C5.O=C(O)C=CC(=O)O (stereo not drawn) [Morphine-6-glucuronide maleate] , give its measured Known Related Substances HN75076 value. 0.14

For the compound Br.CN1CC[C@]23c4c5ccc(O)c4O[C@H]2[C@@H](O[C@@H]2O[C@H](C(=O)O)[C@@H](O)[C@H](O)[C@H]2O)C=C[C@H]3[C@H]1C5 [Morphine-6-glucuronide hydrobromide] , give its measured Known Related Substances HN75076 value. 0.04

For the compound CN1CC[C@]23c4c5ccc(O)c4O[C@H]2[C@@H](O[C@@H]2O[C@H](C(=O)O)[C@@H](O)[C@H](O)[C@H]2O)C=C[C@H]3[C@H]1C5.Cl [Morphine-6-glucuronide hydrochloride] , give its measured Known Related Substances HN75076 value. 0.55

For the compound CN1CCC23c4c5ccc(O)c4OC2C(OC2OC(C(=O)O)C(O)C(O)C2O)C=CC3C1C5.CN1CCC23c4c5ccc(O)c4OC2C(OC2OC(C(=O)O)C(O)C(O)C2O)C=CC3C1C5.O=C(O)C=CC(=O)O (stereo not drawn) [Morphine-6-glucuronide fumarate] , give its measured Known Related Substances HN75076 value. 0.06

For the compound CN1CCC23c4c5ccc(O)c4OC2C(OC2OC(C(=O)O)C(O)C(O)C2O)C=CC3C1C5.CN1CCC23c4c5ccc(O)c4OC2C(OC2OC(C(=O)O)C(O)C(O)C2O)C=CC3C1C5.O=S(=O)(O)O (stereo not drawn) [Morphine-6-glucuronide sulphate] , give its measured Known Related Substances HN75076 value. 0.26

====

- experimentalDetails: Stability of M6G salts at room temperature over 6 years, HPLC
- Format: physicochemical
- conditionSummary: 0 years; content calculated as M6G derivative
quantityMeasured: Assay M6G corr. (%)
All answers are understood in %, so give the number only.

Known Assay M6G corr. results, listed for orientation:
For the compound CN1CC[C@]23c4c5ccc(O)c4O[C@H]2[C@@H](O[C@@H]2O[C@H](C(=O)O)[C@@H](O)[C@H](O)[C@H]2O)C=C[C@H]3[C@H]1C5 [Morphine-6-glucuronide base, morphine-6-β-D-glucuronide] , give its measured Assay M6G corr. value. 98.2

For the compound CN1CC[C@]23c4c5ccc(O)c4O[C@H]2[C@@H](O[C@@H]2O[C@H](C(=O)O)[C@@H](O)[C@H](O)[C@H]2O)C=C[C@H]3[C@H]1C5.Cl [Morphine-6-glucuronide hydrochloride] , give its measured Assay M6G corr. value. 88.7

For the compound Br.CN1CC[C@]23c4c5ccc(O)c4O[C@H]2[C@@H](O[C@@H]2O[C@H](C(=O)O)[C@@H](O)[C@H](O)[C@H]2O)C=C[C@H]3[C@H]1C5 [Morphine-6-glucuronide hydrobromide] , give its measured Assay M6G corr. value. 90.7

Now consider a different compound.
For the compound CN1CCC23c4c5ccc(O)c4OC2C(OC2OC(C(=O)O)C(O)C(O)C2O)C=CC3C1C5.CN1CCC23c4c5ccc(O)c4OC2C(OC2OC(C(=O)O)C(O)C(O)C2O)C=CC3C1C5.O=S(=O)(O)O (stereo not shown) [Morphine-6-glucuronide sulphate] , give its measured Assay M6G corr. value. 93.6

====

Parameter Total Unknown: see the listing below.
- experimentalDetails: Stability indicating HPLC assay and related substances on storage (Example 3)
- Assay type: physicochemical
- conditionSummary: 3 months, 40° C./75% RH
- Method: Assay (% w/w) and related substances determination Each test material was stored between 2-8*C prior to placing on stability. Each material was sub-divided into 900 mg aliquots, transferred to brown opaque HDPE plastic bottles and flushed with Argon prior to sealing. Sufficient samples were provided for each time point as well as spares for each storage condition. The samples were placed in appropriate incubators previously commissioned at storage conditions 25° C./60% RH, 40° C./75% RH and 60° C. […]

Known Total Unknown results, listed for orientation:
For the compound CN1CCC23c4c5ccc(O)c4OC2C(OC2OC(C(=O)O)C(O)C(O)C2O)C=CC3C1C5.CN1CCC23c4c5ccc(O)c4OC2C(OC2OC(C(=O)O)C(O)C(O)C2O)C=CC3C1C5.O=S(=O)(O)O (centres unmarked) [Morphine-6-glucuronide sulphate] , give its measured Total Unknown value. 15.23%

For the compound CN1CCC23c4c5ccc(O)c4OC2C(OC2OC(C(=O)O)C(O)C(O)C2O)C=CC3C1C5.O=P(O)(O)O (centres unmarked) [Morphine-6-glucuronide phosphate] , give its measured Total Unknown value. 4.15%

For the compound CN1CC[C@]23c4c5ccc(O)c4O[C@H]2[C@@H](O[C@@H]2O[C@H](C(=O)O)[C@@H](O)[C@H](O)[C@H]2O)C=C[C@H]3[C@H]1C5.Cl [Morphine-6-glucuronide hydrochloride] , give its measured Total Unknown value. 51.57%

For the compound CN1CCC23c4c5ccc(O)c4OC2C(OC2OC(C(=O)O)C(O)C(O)C2O)C=CC3C1C5.CN1CCC23c4c5ccc(O)c4OC2C(OC2OC(C(=O)O)C(O)C(O)C2O)C=CC3C1C5.O=C(O)C=CC(=O)O (centres unmarked) [Morphine-6-glucuronide fumarate] , give its measured Total Unknown value. 6.09%

Now consider a different compound.
For the compound CN1CC[C@]23c4c5ccc(O)c4O[C@H]2[C@@H](O[C@@H]2O[C@H](C(=O)O)[C@@H](O)[C@H](O)[C@H]2O)C=C[C@H]3[C@H]1C5 [Morphine-6-glucuronide base, morphine-6-β-D-glucuronide] , give its measured Total Unknown value. 3.08%

====

- experimentalDetails: Stability indicating HPLC assay and related substances on storage (Example 3)
- Assay type: physicochemical
- conditionSummary: Initial
Parameter Known Related Substances HN75083: see the listing below.
All answers are understood in %, so give the number only.

For the compound CN1CCC23c4c5ccc(O)c4OC2C(OC2OC(C(=O)O)C(O)C(O)C2O)C=CC3C1C5.CN1CCC23c4c5ccc(O)c4OC2C(OC2OC(C(=O)O)C(O)C(O)C2O)C=CC3C1C5.O=C(O)C=CC(=O)O (centres unmarked) [Morphine-6-glucuronide maleate] , give its measured Known Related Substances HN75083 value. 0.05

Now consider a different compound.
For the compound CN1CCC23c4c5ccc(O)c4OC2C(OC2OC(C(=O)O)C(O)C(O)C2O)C=CC3C1C5.CN1CCC23c4c5ccc(O)c4OC2C(OC2OC(C(=O)O)C(O)C(O)C2O)C=CC3C1C5.O=C(O)C=CC(=O)O (centres unmarked) [Morphine-6-glucuronide fumarate] , give its measured Known Related Substances HN75083 value. 0.05
